Origin of measurements: ChEMBL document CHEMBL4828702

# System: OCT1
# EXPERIMENT_DESCRIPTION: Ratio of drug uptake in human OCT1 expressing HEK293 cells at 2.5 uM to drug uptake in empty vector transfected human HEK293 cells at 2.5 uM
# Type: ADME, cell-based
Decide by uptake ratio at 2.5 µM: equal to or exceeding 10 means True, less means False.

Record excerpt, results attached:
N=C(N)NC(=O)Cc1c(Cl)cccc1Cl [GUANFACINE] = False
CC[N+](CC)(CC)Cc1ccccc1 = True
CC[N+](CC)(CC(=O)Nc1c(C)cccc1C)Cc1ccccc1 [DENATONIUM] = True
CC[N+](C)(C)c1cccc(O)c1 [EDROPHONIUM] = True
C[N+]1(CCC(C(N)=O)(c2ccccc2)c2ccccc2)CCCCC1 = True

Now consider the entry below.
Incoming: hey, is uptake ratio at 2.5 µM for this one >= 10? C[N+]1(C)CCN(c2ccccc2)CC1 [DIMETHYLPHENYLPIPERAZINIUM]
Outgoing: True
